system-under-test: EGFR tyrosine kinase (WT) (Homo sapiens)
Sequence (P00533 25-1210): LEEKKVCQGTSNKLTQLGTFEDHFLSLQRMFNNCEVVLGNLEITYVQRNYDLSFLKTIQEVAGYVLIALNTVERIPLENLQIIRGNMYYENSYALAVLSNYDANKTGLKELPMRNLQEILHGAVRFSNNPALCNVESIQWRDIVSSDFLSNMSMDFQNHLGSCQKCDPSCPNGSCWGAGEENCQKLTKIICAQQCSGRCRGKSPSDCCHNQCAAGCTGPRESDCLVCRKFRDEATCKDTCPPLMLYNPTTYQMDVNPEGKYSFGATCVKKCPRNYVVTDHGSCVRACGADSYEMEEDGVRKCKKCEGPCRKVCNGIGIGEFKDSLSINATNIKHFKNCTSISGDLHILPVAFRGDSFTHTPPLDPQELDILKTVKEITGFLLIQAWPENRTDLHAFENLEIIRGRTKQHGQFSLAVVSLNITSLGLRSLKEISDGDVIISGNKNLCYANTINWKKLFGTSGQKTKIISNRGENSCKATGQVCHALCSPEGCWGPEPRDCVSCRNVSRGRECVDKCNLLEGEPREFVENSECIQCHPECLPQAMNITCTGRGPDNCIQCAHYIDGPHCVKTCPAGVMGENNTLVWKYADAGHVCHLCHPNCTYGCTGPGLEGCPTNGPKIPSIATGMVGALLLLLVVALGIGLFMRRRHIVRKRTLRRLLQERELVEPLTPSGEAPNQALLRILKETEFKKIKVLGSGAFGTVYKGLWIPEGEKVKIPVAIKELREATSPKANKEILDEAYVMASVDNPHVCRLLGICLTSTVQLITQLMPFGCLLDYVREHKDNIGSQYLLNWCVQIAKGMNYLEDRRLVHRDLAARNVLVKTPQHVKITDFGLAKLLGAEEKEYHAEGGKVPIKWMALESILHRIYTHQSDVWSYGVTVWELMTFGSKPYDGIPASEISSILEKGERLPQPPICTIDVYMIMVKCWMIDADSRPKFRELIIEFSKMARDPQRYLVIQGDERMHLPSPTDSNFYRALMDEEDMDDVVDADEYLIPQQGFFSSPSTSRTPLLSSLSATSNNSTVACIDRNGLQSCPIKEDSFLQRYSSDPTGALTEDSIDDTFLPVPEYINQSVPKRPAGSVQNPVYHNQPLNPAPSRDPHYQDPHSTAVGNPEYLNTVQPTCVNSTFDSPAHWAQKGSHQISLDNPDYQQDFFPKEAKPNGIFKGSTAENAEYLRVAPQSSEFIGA
Recorded pIC50 for the following molecules
Here pIC50 is given on a logarithmic scale as minus log10 of the concentration in mol/L.

As a guide, the following entries are already answered.
COC[C@@H](Nc1ncnc2sc3c(c12)CCN(C(=O)/C=C/CN1CCN(CCF)CC1)C3)c1ccccc1; 6.43
O=C(/C=C/CN1CCN(CCF)CC1)N1CCc2c(sc3ncnc(N[C@H](CO)c4ccccc4)c23)C1 [P2]; 7.36
O=C(CN1CCN(CCF)CC1)N1CCc2c(sc3ncnc(N[C@H](CO)c4ccccc4)c23)C1; 5.36

Prompt line: Fill in: pIC50 on EGFR tyrosine kinase (WT) (Homo sapiens), entry O=C(CCN1CCN(CCF)CC1)N1CCc2c(sc3ncnc(N[C@H](CO)c4ccccc4)c23)C1
Response line: 5.55

Prompt line: Provide measured pIC50 on EGFR tyrosine kinase (WT) (Homo sapiens) for OC[C@@H](Nc1ncnc2sc3c(c12)CCN(CCF)C3)c1ccccc1 [P1] please.
Response line: 5.64
